- Test system: AR mRNA
- Method Notes: Dose-dependent antisense inhibition of human AR in HuVEC cells (electroporation, qRT-PCR RTS3559, IC50)
- Format: cell-based
- Measurement Setup: Table 36; 3000.0 nM, HuVEC, electroporation, approximately 16 hours
Oligonucleotides are written 5' to 3', each unit as a sugar letter and its base; * is a phosphorothioate linkage, no mark a phosphodiester; rarer units and linkages stand in square brackets, end groups in braces. Plain capitals give the bases only. k = constrained ethyl (cEt); [5mC] = 5-methylcytosine; d = 2'-deoxy (DNA)
The reader will find reported percent inhibition of AR, 3000.0 nM values listed item by item below.
The figure you give is taken to be in %; do not add the unit.

The examples below pair each entry with its known result.
549372 (kA*kA*kG*dT*dT*dG*dT*dA*dG*dT*dA*dG*dT*k[5mC]*kG*k[5mC]) [compound 549372]: 85
584242 (k[5mC]*k[5mC]*kA*dT*dT*dT*dG*dT*dG*d[5mC]*d[5mC]*dA*dA*kA*k[5mC]*k[5mC]; antisense) [compound 584242]: 93
584469 (kT*kT*kT*dG*dG*dT*dA*dA*d[5mC]*dA*dT*dT*dA*kG*kG*k[5mC]; antisense) [compound 584469]: 89
584158 (kG*kG*kT*dT*dA*dA*d[5mC]*dT*dT*dT*d[5mC]*dT*d[5mC]*kT*kG*kA; antisense) [compound 584158]: 89

Now look at this one.
Please report the recorded percent inhibition of AR, 3000.0 nM for 584329 (kG*kG*kT*dT*dA*dT*dG*dG*dT*dT*d[5mC]*dT*dG*kT*k[5mC]*kT; antisense) [compound 584329] .
86

Hello, the source for this data is patent USRE48461E1, in case you need it.
